# System: DFO2036
# experiment-description: qHTS profiling for inhibitors of Plasmodium falciparum proliferation (AID 504749); also: nearly all actives have a fitted effect of over 60% in size; also: potency is read from the fitted curve at half-maximal effect
# stated-conditions: P. falciparum in erythrocytes, SYBR Green DNA, 72 h; series mostly up to 28.7 µM
Inconclusive results are not listed. The source made the active and inactive calls. Calls follow the shape of the dose curve; as a rule, active = well fitted inhibition curve with a large enough effect; inconclusive = small, poorly fitted or top-dose-only effect; inactive = flat fitted curve, though single readings scatter.
measured-parameter: Potency

molecule | endpoint-value
O=[As]O[As]=O (stereo not given) | 12.6 µM (active)
C[N+]1([O-])[C@@H]2CC[C@H]1CC(OC(=O)[C@@H](CO)c1ccccc1)C2 (stereo not given in full) | inactive
NCC[C@H](O)C(=O)N[C@H]1C[C@@H](N)[C@@H](O[C@H]2O[C@@H](CN)[C@@H](O)[C@@H](O)[C@@H]2N)[C@@H](O[C@H]2O[C@@H](CO)[C@@H](O)[C@@H]2O)[C@@H]1O | inactive
C[C@H](NC(C)(C)C)C(=O)c1cccc(Cl)c1 | inactive

-- ask Given ClC1=C(Cl)C2(Cl)C3C4CC(C5OC45)C3C1(Cl)C2(Cl)Cl (stereo not given) , state its recorded Potency.
-- reply inactive

-- ask Can you share its Potency? I mean this molecule: C[C@H](N)[C@@H](O)c1ccccc1
-- reply inactive

-- ask Field request: Potency | item: [Hg+][c]1ccccc1
-- reply inactive

-- ask Suppose we examine the molecule CC(C)N(CC[C@@](C(N)=O)(c1ccccc1)c1ccccn1)C(C)C ; what Potency value has been reported?
-- reply inactive

-- ask // returns reported Potency for input O=C1C=C2C=CC3C[C@@]2(O1)C1CCCCN31 (stereo not given in full)
-- reply 12.6 µM (active)

-- ask Item C[C@]12CC[C@H]3[C@@H](CCC4=CC(=O)CC[C@@]43C)[C@@H]1CC[C@@H]2O has what recorded Potency?
-- reply inactive

====

# experiment-description: Primary qHTS for inhibitors of SARS-S pseudo-typed particle cell entry (AID 1479145); also: % is scaled to controls: 0 for no effect and ±100 for the full control effect; nearly all actives have a fitted effect of over 45% in size
# stated-conditions: SARS-S pseudotyped particle cell entry, luciferase reporter; series mostly up to 57.1 µM
Results filed as inconclusive are left out. Activity calls are given as the source filed them. Calls come from the whole dose curve.
measured-parameter: activity change, negative = inhibition

-- ask Quick one: activity change, negative = inhibition of CCCCCCCCCCCCCCCCCC(=O)[O][Al] ?
-- reply -36% [at 5.34 µM] (inactive)

====

The entries below come with measured Potency values attached.
# experiment-description: qHTS for differential inhibitors of proliferation of Plasmodium falciparum line 7G8 (AID 1815);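 also: potency is read from the fitted curve at half-maximal effect; parasite growth measured after three days of incubation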
# stated-conditions: Plasmodium falciparum 7G8 proliferation inhibition; series mostly up to 28.7 µM
Inconclusive results are not listed. Active and inactive are the calls of the source. The call rests on the fitted dose curve; in most records, active means well fitted curve in the direction sought with a large enough effect; inconclusive means small, poorly fitted or top-dose-only effect, or another doubt; inactive means no such curve, though single readings can be large or run the other way.

molecule | Potency
CC1Cc2cc3c(cc2C(c2ccc(N)cc2)=NN1)OCO3 (stereo not drawn) | 12.6 µM (active)

Let us examine a further case.
-- ask Fill blank: measured Potency of the molecule C/C=C(/C)C(=O)O[C@H]1C(C)=C2C([C@@H]1OC(=O)CCCCCCC)[C@@](C)(OC(C)=O)C[C@@H](OC(=O)CCC)[C@@]1(O)[C@H]2OC(=O)[C@@]1(C)O (stereo partly drawn) is ____.
-- reply 4.47 µM (active)

====

# Test system: CP266
# experiment-description: qHTS profiling for inhibitors of Plasmodium falciparum proliferation (AID 504749); also: nearly all actives have a fitted effect of over 60% in size
# stated-conditions: P. falciparum in erythrocytes, SYBR Green DNA, 72 h; series mostly up to 12.8 µM
Results filed as inconclusive are left out. Activity calls are given as the source filed them. Calls come from the whole dose curve; as a rule, active = well fitted inhibition curve with a large enough effect; inconclusive = small, poorly fitted or top-dose-only effect; inactive = flat fitted curve, though single readings scatter.
# valid calls are active, inactive; nothing else

Example entries and their recorded answers appear below.
molecule | qualitative-label
C[C@]12CC[C@H]3[C@@H](CCC4=CC(=O)CC[C@@]43C)[C@@H]1CC[C@@H]2O | inactive
CC([C@H](O)c1ccccc1)N(C)C (some centres not stated) | inactive
C[C@@H]1O[C@H](O[C@@H]2C=C3CC[C@H]4[C@@H](CC[C@]5(C)[C@@H](c6ccc(=O)oc6)CC[C@]45O)[C@@]3(C)CC2)[C@@H](O)[C@H](O)[C@@H]1O | inactive

-- ask What is the recorded call for this molecule in the test? CO[C@@H](COC(N)=O)C1=C(N2CC2)C(=O)C(C)=C(N2CC2)C1=O
-- reply active

-- ask Call for entry N[C@H]1C[C@H]1c1ccccc1 :
-- reply inactive

-- ask Could you please tell me the result logged for C[N+]1([O-])[C@@H]2CC(OC(=O)[C@@H](CO)c3ccccc3)C[C@@H]1[C@H]1O[C@H]12 (some centres not stated) in this assay?
-- reply inactive

-- ask Assay result, entry C[C@H](NC(C)(C)C)C(=O)c1cccc(Cl)c1 — outcome?
-- reply inactive

The reported numbers originate from PubChem BioAssay (NCATS).
